# EXPERIMENTAL SYSTEM: BRM (Homo sapiens, UniProt P51531)
# Construct: made in house; host or cells: High Five insect cells
# Sequence (P51531 whole entry): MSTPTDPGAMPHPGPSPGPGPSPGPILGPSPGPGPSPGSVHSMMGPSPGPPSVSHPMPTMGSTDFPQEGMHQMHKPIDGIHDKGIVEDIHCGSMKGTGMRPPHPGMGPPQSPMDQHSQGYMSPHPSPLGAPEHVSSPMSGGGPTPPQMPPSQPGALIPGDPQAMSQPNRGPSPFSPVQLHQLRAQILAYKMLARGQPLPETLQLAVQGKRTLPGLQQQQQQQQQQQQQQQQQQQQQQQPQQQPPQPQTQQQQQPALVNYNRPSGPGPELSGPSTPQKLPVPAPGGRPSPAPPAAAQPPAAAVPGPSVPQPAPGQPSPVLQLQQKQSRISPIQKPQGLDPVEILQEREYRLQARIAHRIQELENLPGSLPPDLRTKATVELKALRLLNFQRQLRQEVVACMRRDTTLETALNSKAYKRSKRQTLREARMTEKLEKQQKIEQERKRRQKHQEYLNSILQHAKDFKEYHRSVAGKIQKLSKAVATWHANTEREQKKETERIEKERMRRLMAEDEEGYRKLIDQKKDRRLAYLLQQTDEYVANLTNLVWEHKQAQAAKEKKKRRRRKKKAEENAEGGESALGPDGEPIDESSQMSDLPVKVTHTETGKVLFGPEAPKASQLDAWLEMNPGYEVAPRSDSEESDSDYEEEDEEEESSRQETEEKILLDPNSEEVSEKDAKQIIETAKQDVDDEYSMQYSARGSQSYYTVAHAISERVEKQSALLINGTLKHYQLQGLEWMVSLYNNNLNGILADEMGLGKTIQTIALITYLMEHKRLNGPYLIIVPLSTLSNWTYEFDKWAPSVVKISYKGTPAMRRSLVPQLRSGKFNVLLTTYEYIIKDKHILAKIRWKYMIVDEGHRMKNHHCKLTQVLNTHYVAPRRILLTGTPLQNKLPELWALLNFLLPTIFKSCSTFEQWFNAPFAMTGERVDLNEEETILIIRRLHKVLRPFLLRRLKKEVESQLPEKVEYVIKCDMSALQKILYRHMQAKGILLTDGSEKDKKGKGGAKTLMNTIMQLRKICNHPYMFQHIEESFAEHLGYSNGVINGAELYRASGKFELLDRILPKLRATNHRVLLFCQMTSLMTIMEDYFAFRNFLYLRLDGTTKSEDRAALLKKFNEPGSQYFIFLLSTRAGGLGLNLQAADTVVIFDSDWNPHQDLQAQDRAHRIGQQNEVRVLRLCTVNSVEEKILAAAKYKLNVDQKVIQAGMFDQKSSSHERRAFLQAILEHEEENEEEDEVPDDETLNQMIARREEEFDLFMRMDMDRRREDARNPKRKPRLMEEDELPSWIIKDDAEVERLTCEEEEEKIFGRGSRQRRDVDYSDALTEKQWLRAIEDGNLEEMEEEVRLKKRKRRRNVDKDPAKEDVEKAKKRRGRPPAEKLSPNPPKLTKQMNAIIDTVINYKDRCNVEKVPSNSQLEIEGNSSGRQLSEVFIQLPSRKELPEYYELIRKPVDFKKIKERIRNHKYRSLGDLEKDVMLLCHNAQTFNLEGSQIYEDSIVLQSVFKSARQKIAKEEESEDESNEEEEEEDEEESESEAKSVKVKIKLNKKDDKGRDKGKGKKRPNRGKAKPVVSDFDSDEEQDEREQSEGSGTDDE
# EXPERIMENTAL PROTOCOL: ATPase catalytic activity of BRM, ADP-Glo in vitro biochemical assay
# CONDITION LABEL: ratio BRG1 IC50 / BRM IC50
OBSERVED PROPERTY: Ratio*

Q: What value of Ratio* has been reported for the following compound? C[C@@H]1CN(c2ccnc(-c3ccc4cnc(CNC(=O)c5ccc6c(c5)S(=O)(=O)[C@@H](C)COC6)cc4c3)n2)C[C@H](C)O1
A: 17.15

P. Cc1cc(F)c2c(c1)OCCN2c1ccc2cnc(CNC(=O)c3ccc4c(c3)S(=O)(=O)CCOC4)cc2n1
Q. O=C(NCc1cc2nc(N3CCOc4ccc(C5CC5)c(F)c43)ccc2cn1)c1ccc2c(c1)S(=O)(=O)CCOC2
Q: Between P and Q , whose recorded Ratio* is greater? Indicate your choice by writing its label.
A: P

###

# EXPERIMENTAL SYSTEM: BRG-1 (Homo sapiens)
# Construct: made in house; host or cells: High Five insect cells
# Sequence (P51532 whole entry): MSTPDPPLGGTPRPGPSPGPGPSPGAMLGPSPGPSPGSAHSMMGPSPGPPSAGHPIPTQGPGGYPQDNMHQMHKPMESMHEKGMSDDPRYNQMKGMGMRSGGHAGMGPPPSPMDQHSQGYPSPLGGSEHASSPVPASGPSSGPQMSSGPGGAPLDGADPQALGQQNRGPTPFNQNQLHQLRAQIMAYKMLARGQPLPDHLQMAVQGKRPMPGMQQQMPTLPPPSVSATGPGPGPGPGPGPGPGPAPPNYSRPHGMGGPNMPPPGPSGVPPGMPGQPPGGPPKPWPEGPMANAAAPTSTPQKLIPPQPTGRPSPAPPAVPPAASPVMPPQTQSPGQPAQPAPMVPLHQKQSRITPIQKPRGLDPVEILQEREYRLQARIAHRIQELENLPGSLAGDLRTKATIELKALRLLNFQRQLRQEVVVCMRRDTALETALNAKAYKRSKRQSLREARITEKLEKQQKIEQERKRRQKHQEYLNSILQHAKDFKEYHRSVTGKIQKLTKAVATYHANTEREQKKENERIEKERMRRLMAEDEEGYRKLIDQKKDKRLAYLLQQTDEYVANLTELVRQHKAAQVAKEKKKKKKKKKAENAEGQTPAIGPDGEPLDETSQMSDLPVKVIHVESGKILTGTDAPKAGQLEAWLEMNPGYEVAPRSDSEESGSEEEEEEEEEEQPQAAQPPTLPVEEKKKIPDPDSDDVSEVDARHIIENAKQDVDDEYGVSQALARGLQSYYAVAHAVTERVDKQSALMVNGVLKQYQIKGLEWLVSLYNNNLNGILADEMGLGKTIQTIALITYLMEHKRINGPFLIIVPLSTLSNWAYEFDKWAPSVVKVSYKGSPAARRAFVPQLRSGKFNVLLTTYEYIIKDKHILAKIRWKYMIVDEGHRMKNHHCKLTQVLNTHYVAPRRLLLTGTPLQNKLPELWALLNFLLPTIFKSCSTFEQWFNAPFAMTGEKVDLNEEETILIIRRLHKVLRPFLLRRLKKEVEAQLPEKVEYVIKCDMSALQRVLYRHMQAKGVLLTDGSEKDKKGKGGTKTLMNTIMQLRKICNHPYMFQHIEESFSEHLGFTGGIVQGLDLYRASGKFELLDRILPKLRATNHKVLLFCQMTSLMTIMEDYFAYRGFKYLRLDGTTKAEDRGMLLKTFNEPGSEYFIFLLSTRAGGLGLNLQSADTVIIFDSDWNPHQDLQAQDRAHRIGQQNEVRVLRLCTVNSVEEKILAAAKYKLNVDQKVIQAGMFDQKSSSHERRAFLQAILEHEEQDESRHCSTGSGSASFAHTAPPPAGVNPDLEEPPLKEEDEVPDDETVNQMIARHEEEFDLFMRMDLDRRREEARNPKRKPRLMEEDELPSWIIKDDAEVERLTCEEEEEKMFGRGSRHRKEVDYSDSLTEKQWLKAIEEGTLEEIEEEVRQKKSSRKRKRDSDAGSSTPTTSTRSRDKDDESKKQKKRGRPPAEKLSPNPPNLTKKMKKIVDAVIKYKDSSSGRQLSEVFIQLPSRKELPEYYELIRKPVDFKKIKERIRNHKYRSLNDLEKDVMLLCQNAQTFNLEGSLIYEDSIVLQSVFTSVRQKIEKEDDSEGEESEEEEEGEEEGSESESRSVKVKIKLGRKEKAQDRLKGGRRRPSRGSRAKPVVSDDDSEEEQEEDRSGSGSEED
# EXPERIMENTAL PROTOCOL: ATPase catalytic activity of BRG-1, ADP-Glo in vitro biochemical assay
# CONDITION LABEL: ADP-Glo ATPase assay, 30 nM BRG-1, 400 μM ATP; read-out: BRG1 IC50
pIC50: −log10 of the molar value.
OBSERVED PROPERTY: pIC50

Solved entries (count: 5):
Q: What value of pIC50 has been reported for the following compound? CO[C@@H](C)c1cccc(-c2ccc3cnc(CNC(=O)c4ccc5c(c4)S(=O)(=O)CCOC5)cc3n2)n1
A: 5.61

Q: Now give it for Cc1cc(C(=O)NCc2cc3nc(-c4cccc(N5C[C@@H](C)O[C@@H](C)C5)n4)ccc3cn2)cc2c1COCCS2(=O)=O too.
A: 7.24

Q: Now give it for Cn1cnc2c(-c3ccc4cnc(CNC(=O)c5ccc6c(c5)S(=O)(=O)CCOC6)cc4n3)cccc21 too.
A: 5.82

Q: Now give it for CS(=O)(=O)c1cc(C(=O)NCc2cc3nc(-c4cccc(N5CC[C@H]6COC[C@H]6C5)n4)ccc3cn2)ccc1Cl too.
A: 6.17

Q: Now give it for Cc1c(Cl)cc(C(=O)NCc2cc3nc(-c4cncc(C5CC5)n4)ccc3cn2)cc1S(C)(=O)=O too.
A: 5.30

1. C[C@@H]1CN(c2cccc(-c3ccc4cnc(CNC(=O)c5cc(C6CC6)c6c(c5)S(=O)(=O)CCOC6)cc4n3)n2)C[C@H](C)O1
2. CS(=O)(=O)c1cc(C(=O)NCc2cc3nc(-c4cncc(C5CC5)n4)ccc3cn2)ccc1C(F)F
Q: Param metric = pIC50; output whichever of 1 , 2 has the minimum value. Indicate your choice by writing its label.
A: 2

###

# EXPERIMENTAL SYSTEM: BRG-1 (Homo sapiens)
# Construct: made in house; host or cells: High Five insect cells
# EXPERIMENTAL PROTOCOL: ATPase catalytic activity of BRG-1, ADP-Glo in vitro biochemical assay
# CONDITION LABEL: ATPase catalytic activity, ADP-Glo; 30 nM BRG-1, 400 μM ATP; read-out: BRG1 IC50
OBSERVED PROPERTY: IC50 (nM)

Solved entries (count: 4):
Q: What value of IC50 has been reported for the following compound? O=C(NCc1cc2nc(N3CCCc4c(OC(F)F)ccnc43)ccc2cn1)c1ccc2c(c1)S(=O)(=O)CCOC2 [Compound 620]
A: 158

Q: Now give it for C[C@@H]1CN(c2cccc(-c3ccc4cnc(CNC(=O)c5ccc6c(c5)S(=O)(=O)CCCOC6)cc4n3)n2)C[C@H](C)O1 [Compound 628] too.
A: 9.7

Q: Now give it for C[C@@H]1CCS(=O)(=O)c2cc(C(=O)NCc3cc4nc(-c5cccc(N6C[C@@H](C)O[C@@H](C)C6)n5)ccc4cn3)cc(F)c2O1 [Compound 494] too.
A: 98.5

Q: Now give it for CO[C@H](C)Cn1ccc2c(-c3ccc4cnc(CNC(=O)c5ccc6c(c5)S(=O)(=O)CCOC6)cc4n3)ccnc21 [Compound 448] too.
A: 3670

A. CN(C[C@H]1CCO1)c1cccc(-c2ccc3cnc(CNC(=O)c4ccc5c(c4)S(=O)(=O)CCOC5)cc3n2)n1 [Compound 383]
B. O=C(NCc1cc2nc(N3CCc4ccc(Cl)cc43)ccc2cn1)c1ccc2c(c1)S(=O)(=O)CCOC2 [Compound 654]
Q: Between A and B , whose recorded IC50 is greater? Indicate your choice by writing its label.
A: B
(B: 2570 nM, A: 72.4 nM)

P. C[C@@H]1CN(c2cccc(-c3ccc4cnc(CNC(=O)c5cc(Cl)c6c(c5)S(=O)(=O)CCOC6)cc4n3)n2)C[C@H](C)O1 [Compound 389]
Q. Cc1cnc2c(c1)OCCN2c1ccc2cnc(CNC(=O)c3cc(Cl)c4c(c3)S(=O)(=O)CCOC4)cc2n1 [Compound 552]
R. COC[C@H]1C[C@H]1c1cccc(-c2ccc3cnc(CNC(=O)c4ccc5c(c4)S(=O)(=O)CCOC5)cc3n2)n1 [Compound 346]
S. C[C@@H]1CN(c2cccc(-c3ccc4cnc(CNC(=O)c5cc(Cl)c6c(c5)S(=O)(=O)[C@@H](C)CCO6)cc4n3)n2)C[C@H](C)O1 [Compound 484]
Q: # rank_down: sort by IC50, max first As an answer, provide the labels arranged in the order called for.
A: R, P, S, Q
(R: 2770 nM, P: 528 nM, S: 289 nM, Q: 190 nM)

P. C[C@@H]1CN(c2cccc(-c3ccc4cnc(CNC(=O)c5ccc6c(c5)S(=O)(=O)[C@@H](C)CN6C5CC5)cc4n3)n2)C[C@H](C)O1 [Compound 667]
Q. COc1ccc2c(c1)N(c1ccc3cnc(CNC(=O)c4ccc5c(c4)S(=O)(=O)CCOC5)cc3n1)CCC2 [Compound 539]
Q: Param metric = IC50; output whichever of P , Q has the minimum value. Indicate your choice by writing its label.
A: Q

###

# EXPERIMENTAL SYSTEM: BRM (Homo sapiens)
# Construct: made in house; host or cells: High Five insect cells
# EXPERIMENTAL PROTOCOL: ATPase catalytic activity of BRM, ADP-Glo in vitro biochemical assay
# CONDITION LABEL: selectivity ratio BRG1 IC50 / BRM IC50
OBSERVED PROPERTY: Ratio* (BRG1 IC50 (μM) divided by BRM IC50 (μM))

Solved entries (count: 4):
Q: Item CS(=O)(=O)c1cc(C(=O)NCc2cc3nc(-c4cncc(C5CC5)n4)ccc3cn2)ccc1C(F)F with BRM (Homo sapiens) - Ratio* (BRG1 IC50 (μM) divided by BRM IC50 (μM))?
A: 17.98

Q: Now give it for O=C(NCc1cc2nc(-c3ccc(F)c(OC(F)F)n3)ccc2cn1)c1ccc2c(c1)S(=O)(=O)CCOC2 too.
A: 16.99

Q: Now give it for CS(=O)(=O)c1cc(C(=O)NCc2cc3nc(-c4cccc(N5CC[C@H]6COC[C@H]6C5)n4)ccc3cn2)ccc1C(F)F too.
A: 15.00

Q: Now give it for CN(CC(F)F)c1cccc(-c2ccc3cnc(CNC(=O)c4ccc5c(c4)S(=O)(=O)CCOC5)cc3n2)n1 too.
A: 10.05

P. CS(=O)(=O)c1cc(C(=O)NCc2cc3nc(-c4cccc(N5CC[C@@H]6COC[C@@H]6C5)n4)ccc3cn2)ccc1C(F)F
Q. Cc1cc2c(-c3ccc4cnc(CNC(=O)c5ccc6c(c5)S(=O)(=O)CCOC6)cc4n3)cccc2n1C
Q: Between P and Q , whose recorded Ratio* (BRG1 IC50 (μM) divided by BRM IC50 (μM)) is greater? Indicate your choice by writing its label.
A: P

###

# EXPERIMENTAL SYSTEM: BRM (Homo sapiens, UniProt P51531)
# Construct: made in house; host or cells: High Five insect cells
# EXPERIMENTAL PROTOCOL: ATPase catalytic activity of BRM, ADP-Glo in vitro biochemical assay
# CONDITION LABEL: ADP-Glo ATPase assay, 30 nM BRM, 400 μM ATP
OBSERVED PROPERTY: IC50 (nM)

Solved entries (count: 6):
Q: What value of IC50 has been reported for the following molecule? C[C@@H]1CN(c2cc(-c3ccc4cnc(CNC(=O)c5ccc6c(c5)S(=O)(=O)CCOC6)cc4n3)ccn2)C[C@H](C)O1
A: 46.3

Q: Now give it for C[C@@H]1CN(c2nccc(-c3ccc4cnc(CNC(=O)c5ccc(C(F)F)c(S(C)(=O)=O)c5)cc4n3)n2)C[C@H](C)O1 too.
A: 14.5

Q: Now give it for Cc1cnc2c(c1)C1(CCN2c2ccc3cnc(CNC(=O)c4ccc5c(c4)S(=O)(=O)CCOC5)cc3n2)CC1 too.
A: 6.3

Q: Now give it for O=C(NCc1cc2nc(N3CCOc4cc(C5CC5)ccc43)cnc2cn1)c1ccc2c(c1)S(=O)(=O)CCOC2 too.
A: 19

Q: Now give it for CS(=O)(=O)c1cc(C(=O)NCc2cc3nc(-c4cncc(C5CC5)n4)ccc3cn2)cc(F)c1Cl too.
A: 245

Q: Now give it for C[C@@H]1CN(c2cccc(-c3ccc4cnc(CNC(=O)c5ccc6c(c5)S(=O)(=O)CCC5(CC5)O6)cc4n3)n2)C[C@H](C)O1 too.
A: 91.1

I. C[C@H]1C[C@@H]1c1ccc2c(n1)N(c1ccc3cnc(CNC(=O)c4ccc5c(c4)S(=O)(=O)CCOC5)cc3n1)CCO2
II. C[C@@H]1CN(c2cccc(-c3ccc4cnc(CNC(=O)c5ccc6c(c5)S(=O)(=O)CCOC6)cc4n3)n2)CCO1
Q: Param metric = IC50; output whichever of I , II has the minimum value. Indicate your choice by writing its label.
A: II
